- target: Interleukin-5 (Mus musculus) (UniProt P04401)
- Sequence (P04401 whole entry): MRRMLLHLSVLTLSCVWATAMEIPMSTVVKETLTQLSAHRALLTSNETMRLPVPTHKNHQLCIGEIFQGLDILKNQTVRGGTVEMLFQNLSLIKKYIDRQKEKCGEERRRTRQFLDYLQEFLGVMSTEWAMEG
- method: Inhibition of IL-5 in mouse Y16 cells assessed as reduction in cell proliferation at 30 uM after 48 hrs by WST-1 assay relative to control
- Type: cell-based
measured-quantity: inhibition (%)

Worked cases, answers included:
CC(C)NC(=O)N(CCO)Cc1coc2cccc(OCC3CCCCC3)c2c1=O ... 6
CCOC(=O)N(CCO)Cc1coc2cccc(OCC3CCCCC3)c2c1=O ... 89
CC(C)CCOc1cccc2occ(CN(CCO)C(=O)Oc3ccccc3)c(=O)c12 ... 42
COc1ccc(CC(=O)N(CCO)Cc2coc3cccc(OCC4CCCCC4)c3c2=O)cc1 ... 92
CC(C)CCOc1cccc2occ(CN(CCO)C(=O)Cc3ccccc3)c(=O)c12 ... 37
O=C(NCCCc1ccccc1)N(CCO)Cc1coc2cccc(OCC3CCCCC3)c2c1=O ... 95
O=C(Nc1ccc(Cl)cc1)N(CCO)Cc1coc2cccc(OCC3CCCCC3)c2c1=O ... 4
O=C(Oc1ccccc1)N(CCO)Cc1coc2cccc(OCC3CCCCC3)c2c1=O ... 84

P = CCC(=O)N(CCO)Cc1coc2cccc(OCC3CCCCC3)c2c1=O
Q = CC(C)(C)CCOc1cccc2occ(CN(CCO)C(=O)Oc3ccccc3)c(=O)c12
**Query** Between P and Q , whose measured inhibition reads higher? API: response body contains the label of the selected item.
**Result** P

----------
- target: Interleukin-5 (Mus musculus)
- method: Inhibition of IL-5 in mouse Y16 cells assessed as reduction in cell proliferation at 30 uM after 48 hrs by WST-1 assay relative to control
- Assay type: cell-based
measured-quantity: inhibition (%)

O=C(NC1CCCCC1)N(CCO)Cc1coc2cccc(OCC3CCCCC3)c2c1=O ... 85

P = CC(C)(C)CCOc1cccc2occ(CN(CCO)C(=O)Nc3ccccc3)c(=O)c12
Q = CCNC(=O)N(CCO)Cc1coc2cccc(OCC3CCCCC3)c2c1=O
**Query** Between P and Q , whose measured inhibition reads higher? API: response body contains the label of the selected item.
**Result** P

----------
- target: UniProt P04401
- method: Inhibition of IL-5 in mouse Y16 cells assessed as reduction in cell proliferation at 30 uM after 48 hrs by WST-1 assay relative to control
- Type: cell-based
measured-quantity: inhibition (%)

Worked cases, answers included:
O=C(Cc1ccccc1)N(CCO)Cc1coc2cccc(OCC3CCCCC3)c2c1=O ... 95
CCCC(=O)N(CCO)Cc1coc2cccc(OCC3CCCCC3)c2c1=O ... 61
O=C(NCc1ccccc1)N(CCO)Cc1coc2cccc(OCC3CCCCC3)c2c1=O ... 95

P = CC(C)CCOc1cccc2occ(CN(CCO)C(=O)Nc3ccccc3)c(=O)c12
Q = COc1ccc(NC(=O)N(CCO)Cc2coc3cccc(OCC4CCCCC4)c3c2=O)cc1
**Query** Between P and Q , whose measured inhibition reads higher? API: response body contains the label of the selected item.
**Result** Q
